Test: Metabolic stability in human liver S9 fraction
Provide the reported microsomal CLint of each item.
Give just the number in µL/min/mg; leave the unit off.

Memo: COC(=O)/C=C/C(=O)NNC(=O)CCc1ccccc1C(=O)N[C@H](C)c1cccc2ccccc12 , reported microsomal CLint: 38.9

// microsomal CLint lookup, compound = C[C@@H](NC(=O)c1ccccc1CCC(=O)NNC(=O)CCl)c1cccc2ccccc12 , result: 689

----------
Test system: Vero E6 cells
Details: African green monkey, 48 h, 2.08 µM
Attribute Measured: cytotoxicity, %cell viability (%)
Just the number please, in %, no unit attached.

For this molecule ( Cc1ccccc1C(=O)N[C@H](C)c1cccc2ccccc12 ), measured cytotoxicity, %cell viability is 96.55

cytotoxicity, %cell viability reported for this molecule CC(=O)Nc1ccc(C)c(C(=O)N[C@H](C)c2cccc3ccccc23)c1 : 75.89

// cytotoxicity, %cell viability lookup, molecule = C[C@@H](NC(=O)c1ccccc1CCC(=O)NNC(=O)CCl)c1cccc2ccccc12 , result: 100.620

Sample C[C@@H](NC(=O)c1ccccc1CCC(=O)NNC(=O)CC#N)c1cccc2ccccc12 ; cytotoxicity, %cell viability observed: 98.90

GET /value?item= COC(=O)/C=C/C(=O)NNC(=O)CCc1ccc(NC(C)=O)cc1C(=O)N[C@H](C)c1cccc2ccccc12 &field=cytotoxicity, %cell viability returns 78.830

Measured cytotoxicity, %cell viability of CC(=O)Nc1ccc(CCC(=O)NNC(=O)CCl)c(C(=O)N[C@H](C)c2cccc3ccccc23)c1 : 80.200

Lab note: measured cytotoxicity, %cell viability of C[C@@H](NC(=O)c1ccccc1CCC(=O)NNC(=O)C(C#N)=CC1CC1)c1cccc2ccccc12 was 72.90

For record C[C@@H](NC(=O)c1ccccc1CCC(=O)NN)c1cccc2ccccc12 the listed cytotoxicity, %cell viability is 100.12

// COC(=O)CCc1ccccc1C(=O)N[C@H](C)c1cccc2ccccc12 : cytotoxicity, %cell viability value = 99.61

----------
System: SARS-CoV-2 isolate USA-WA1/2020
Settings: African green monkey, 8.33 µM
Attribute Measured: inhibition (%)
Give the number; % is assumed, so skip it.

Record Cc1ccc(N)cc1C(=O)N[C@H](C)c1cccc2ccccc12 [GRL0617, reference compound] . Reported inhibition: 3.62

----------
Target: PLpro from SARS-CoV-2 (Severe acute respiratory syndrome coronavirus 2, UniProt P0DTD1)
Experiment: biochemical
Type: biochemical
Conditions: 0.5 h, inhibitor 20.00 uM
Consider the cut-off 40%. If the recorded remaining activity at 20 µM is strictly smaller, the label is met; if not, the label is not met.

Here's an entry: Cc1ccccc1C(=O)N[C@H](C)c1cccc2ccccc12 [Compound 14] . Is its remaining activity at 20 µM below 40%?
not met

Answer whether the compound CC(=O)Nc1ccc(C)c(C(=O)N[C@H](C)c2cccc3ccccc23)c1 [Compound 15] has remaining activity at 20 µM strictly less than 40%
met

State whether 40% exceeds remaining activity at 20 µM recorded for C[C@@H](NC(=O)c1ccccc1CCC(=O)NNC(=O)CC#N)c1cccc2ccccc12 [Compound 11] .
not met

Say whether its remaining activity at 20 µM is strictly beneath 40%. Entry: C[C@@H](NC(=O)c1ccccc1CCC(=O)NNC(=O)C(C#N)=CC1CC1)c1cccc2ccccc12 [Compound 13]
not met

Hello, I'm reviewing records and need to know if remaining activity at 20 µM of COC(=O)/C=C/C(=O)NNC(=O)CCc1ccccc1C(=O)N[C@H](C)c1cccc2ccccc12 [Compound 7] is below 40%. Could you check?
met

# TODO verify remaining activity at 20 µM < 40% strictly for this compound: C[C@@H](NC(=O)c1ccccc1CCC(=O)NNC(=O)CCl)c1cccc2ccccc12 [Compound 9]
met

----------
Assay: Pharmacokinetics in male ICR mice (IV and PO)
Settings: male, ICR (CD-1), mouse, plasma, iv, 3 mg/kg
Attribute Measured: C0 (ng/mL)
Just the number please, in ng/mL, no unit attached.

Reported C0 for COC(=O)/C=C/C(=O)NNC(=O)CCc1ccccc1C(=O)N[C@H](C)c1cccc2ccccc12 was 63

----------
System: SARS-CoV-2 Delta (B.1.617.2)
Assay: CPE assay, neutral red, Vero E6 cells with 2 μM CP-100356, Delta
Format: cell-based
Conditions: Delta (B1.617.2), Vero E6, 2 μM CP-100356
Attribute Measured: pEC50
Here pEC50 is given on a logarithmic scale as minus log10 of the concentration in mol/L.

Memo: O=c1nc(NO)ccn1[C@@H]1O[C@H](CO)[C@@H](O)[C@H]1O , reported pEC50: 6.51

----------
Test: Metabolic stability in mouse liver S9 fraction
Details: CD-1, mouse
Attribute Measured: microsomal CLint (µL/min/mg)
Numbers only here, please. The scale is µL/min/mg.

Entry Cc1ccccc1C(=O)N[C@H](C)c1cccc2ccccc12 — recorded microsomal CLint = 128

Memo: C[C@@H](NC(=O)c1ccccc1CCC(=O)NNC(=O)CCl)c1cccc2ccccc12 , reported microsomal CLint: 544

Value of microsomal CLint reported for the compound COC(=O)/C=C/C(=O)NNC(=O)CCc1ccccc1C(=O)N[C@H](C)c1cccc2ccccc12 is 266

----------
Hi there, I'd appreciate the recorded CC50 at 48 h for every entry that follows.
Assay: in vitro
Conditions: African green monkey, CC50

Summary for this compound, C[C@@H](NC(=O)c1ccccc1CCC(=O)NNC(=O)CCl)c1cccc2ccccc12 : CC50 at 48 h is > 30 µM

Lookup result for C#CC(=O)NNC(=O)CCc1ccccc1C(=O)N[C@H](C)c1cccc2ccccc12 ; measured CC50 at 48 h: 1 to 5 µM

----------
Assay: in vitro
Settings: African green monkey
Attribute Measured: cytotoxicity at 0.01 µM (%)
Report the figure in % without appending any unit label.

// field: cytotoxicity at 0.01 µM; key: COC(=O)/C=C/C(=O)NNC(=O)CCc1ccccc1C(=O)N[C@H](C)c1cccc2ccccc12 ; value = 6.3

----------
System: Vero E6 cells
Details: African green monkey, 48 h, 33.33 µM
Binary call on cytotoxicity, %cell viability with cut-off 70%: strictly below means Y, and equality or higher means N.

Find out if reported cytotoxicity, %cell viability for CC(=O)Nc1ccc(CCC(=O)NNC(=O)CCl)c(C(=O)N[C@H](C)c2cccc3ccccc23)c1 is less than 70%
Y

Hello, I'm reviewing records and need to know if cytotoxicity, %cell viability of CC(=O)Nc1ccc(C)c(C(=O)N[C@H](C)c2cccc3ccccc23)c1 is below 70%. Could you check?
Y

For this compound, is cytotoxicity, %cell viability lower than 70%? C[C@@H](NC(=O)c1ccccc1CCC(=O)NNC(=O)CC#N)c1cccc2ccccc12
N

Consider COC(=O)/C=C/C(=O)NNC(=O)CCc1ccc(NC(C)=O)cc1C(=O)N[C@H](C)c1cccc2ccccc12 . Does its cytotoxicity, %cell viability lie strictly below 70%?
N

Check if cytotoxicity, %cell viability falls below 70% for C#CC(=O)NNC(=O)CCc1ccccc1C(=O)N[C@H](C)c1cccc2ccccc12 .
Y

----------
System: Vero E6 cells
Conditions: African green monkey, 48 h, 16.67 µM
I'd be grateful if you could share measured cytotoxicity, %cell viability for these entries.
All answers are understood in %, so give the number only.

Lab note: CC(=O)Nc1ccc(C)c(C(=O)N[C@H](C)c2cccc3ccccc23)c1 [Compound 15] gave cytotoxicity, %cell viability of 80.07

The molecule CC(=O)Nc1ccc(CCC(=O)NNC(=O)CCl)c(C(=O)N[C@H](C)c2cccc3ccccc23)c1 [Compound 10] showed cytotoxicity, %cell viability equal to 73.170

// recorded cytotoxicity, %cell viability for C#CC(=O)NNC(=O)CCc1ccccc1C(=O)N[C@H](C)c1cccc2ccccc12 [Compound 12] : 0.55

For record C[C@@H](NC(=O)c1ccccc1CCC(=O)NNC(=O)C(C#N)=CC1CC1)c1cccc2ccccc12 [Compound 13] the listed cytotoxicity, %cell viability is 0.71

cytotoxicity, %cell viability measured on C[C@@H](NC(=O)c1ccccc1CCC(=O)NNC(=O)CC#N)c1cccc2ccccc12 [Compound 11] = 87.90

Documented cytotoxicity, %cell viability of COC(=O)/C=C/C(=O)NNC(=O)CCc1ccc(NC(C)=O)cc1C(=O)N[C@H](C)c1cccc2ccccc12 [Compound 8] : 76.260

----------
Target: USP30 (Homo sapiens)
Sequence (Q70CQ3 whole entry): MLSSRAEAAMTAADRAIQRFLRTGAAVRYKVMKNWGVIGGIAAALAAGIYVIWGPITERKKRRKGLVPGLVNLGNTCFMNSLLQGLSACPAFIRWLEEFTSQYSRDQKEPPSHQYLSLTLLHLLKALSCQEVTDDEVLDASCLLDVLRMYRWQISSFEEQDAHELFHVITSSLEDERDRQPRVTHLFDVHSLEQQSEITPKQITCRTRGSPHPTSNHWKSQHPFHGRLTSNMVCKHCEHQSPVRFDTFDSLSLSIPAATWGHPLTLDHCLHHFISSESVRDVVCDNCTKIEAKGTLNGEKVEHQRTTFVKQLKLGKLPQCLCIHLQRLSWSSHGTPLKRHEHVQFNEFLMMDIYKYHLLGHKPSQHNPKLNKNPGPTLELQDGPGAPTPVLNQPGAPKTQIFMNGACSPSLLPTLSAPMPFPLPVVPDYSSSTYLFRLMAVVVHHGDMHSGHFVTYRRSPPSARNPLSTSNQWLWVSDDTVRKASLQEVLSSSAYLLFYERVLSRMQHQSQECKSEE
pIC50: −log10 of the molar value.
Hi there, I'd appreciate the recorded pIC50 for every entry that follows.

Measured pIC50 (USP30 (Homo sapiens)), entry CC(=O)Nc1ccc(C)c(C(=O)N[C@H](C)c2cccc3ccccc23)c1 : < 4.52

USP30 (Homo sapiens) assay, molecule COC(=O)/C=C/C(=O)NNC(=O)CCc1ccccc1C(=O)N[C@H](C)c1cccc2ccccc12 , recorded pIC50 = < 4.52

Param item: C[C@@H](NC(=O)c1ccccc1CCC(=O)NNC(=O)CCl)c1cccc2ccccc12 ; param system: USP30 (Homo sapiens); output pIC50: < 4.52

----------
Target: PLpro from SARS-CoV-2 (Severe acute respiratory syndrome coronavirus 2, UniProt P0DTD1)
Assay: biochemical
Assay type: biochemical
Conditions: after 30-min incubation; […]
Attribute Measured: pIC50
# pIC50 = -log10(concentration in molar units)

pIC50 reported for this compound Cc1ccccc1C(=O)N[C@H](C)c1cccc2ccccc12 [Compound 14] : 4.00

Input COC(=O)/C=C/C(=O)NNC(=O)CCc1ccc(NC(C)=O)cc1C(=O)N[C@H](C)c1cccc2ccccc12 [Compound 8] . Output pIC50: 6.64

Recorded pIC50 (compound CC(=O)Nc1ccc(CCC(=O)NNC(=O)CCl)c(C(=O)N[C@H](C)c2cccc3ccccc23)c1 [Compound 10] ): 5.36

FYI, the data here is from paper PMC10044120.
